Test system: LXRb:RXRa (NR concentration 270 nM, RXRa partner concentration 90 nM)
protocol.description: PBM binding z-score (relative to random genomic background probes); higher = stronger binding; sequences stand for … in GC…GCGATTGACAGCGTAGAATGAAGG
measured.property: PBM binding z-score
The answer should be written as a number, with no unit following it.

The examples below pair each entry with its known result.
INSERT INTO assay_data (chain, measured_property, reported_value) VALUES
  ('CGTCCAAGTTCAGAGAGGTCAGTGAATGCCGAGT', 'PBM binding z-score', 3.1),
  ('TCATATAGGTAAATGCTAGTTGAAAGTCCGATCT', 'PBM binding z-score', 0.689),
  ('GCTCGGAGGACAAGGTCAGAGCATTGTCCGTAGA', 'PBM binding z-score', 1.15),
  ('ATATGTAGGTTAAGGGTAATTCAGGTTGGTTCGC', 'PBM binding z-score', 1.72),
  ('TGAATGAGGTTATAAGATCAGGGAACGTTGCAAA', 'PBM binding z-score', 0.8),
  ('CCTACTGGGCCACGACAGGTCATTGATTCAGTGA', 'PBM binding z-score', 1.48),
  ('ATATGTAGGTTAAGGGTCACTCAGGTTGGTTCGC', 'PBM binding z-score', 4.27),
  ('CCTCGGAGGGCAACAGGAGGTCAGAGCTGCCAGA', 'PBM binding z-score', 2.23),
  ('TCTTGTAGATCAAGCAGGTTAATAAAGCCTGAGT', 'PBM binding z-score', 0.262),
  ('CTCGAAAGGTCGGTTGCGGTGAGTATACGGATAA', 'PBM binding z-score', 1.38);

Given item `ATAGACAGGTGAGTGAAGGTAACTCAGCTGGACG` , the value recorded as its PBM binding z-score is -0.043

Given item `TCTGCTAGGTCAGTTGGTCAGGTAACGAGCTGCC` , the value recorded as its PBM binding z-score is 0.248

Given item `ATCGCTAGGTAAAAGTTCAGTGAATCCCGAGGAT` , the value recorded as its PBM binding z-score is 0.618

Given item `CCTACTGGGCCATTCAGAGGTCATTGACCATATG` , the value recorded as its PBM binding z-score is 3.95

Given item `ACTCGGAGGACAAAGGTCAAAGCTACGCCAGTGA` , the value recorded as its PBM binding z-score is 5.35
